Where a name gives a salt, the structure may show the parent alone.
recorded.endpoint: melting point

Input line: Can you look up the measured melting point of CC(C)C[C@H](NC(=O)N1CCCCCC1)C(=O)NC(c1ccccc1)c1ccccc1 for me?
Output line: 180 to 181 °C

Input line: Consider next the compound CC(C)N[C@@H](Cc1ccccc1)C(=O)N1CCN(C(c2ccc(F)cc2)c2ccc(F)cc2)CC1 in the same way.
Output line: 45 to 58 °C

Input line: Consider next the compound CC(C)C[C@@H](C(=O)NCCC(c1ccccc1)c1ccccc1)N(C)C1CCCCC1 (as salt: hydrochloride) [Example 25, monohydrochloride] in the same way.
Output line: 67 to 86 °C

Input line: Consider next the compound CC(C)=CCN(C)[C@@H](CC(C)C)C(=O)NCCCC(c1ccc(F)cc1)c1ccc(F)cc1 (as salt: hydrochloride) [Example 13, monohydrochloride] in the same way.
Output line: 55 to 68 °C

###

target.desc: N-type calcium channels in IMR-32 cells (Homo sapiens)
Construct: host or cells: IMR-32 cells differentiated with dibutyryl cAMP and bromodeoxyuridine
protocol: N-type Ca2+ channel blocking potency in IMR-32 cells using Indo-1
Assay type: cell-based
conditions: IMR-32 cells, 5 μM nitrendipine present; read-out: IMR32 IC50
Counter-ions that a name gives are not always drawn.
recorded.endpoint: pIC50
pIC50 is a log-scale quantity: -log10 of the concentration expressed in molar.

Input line: Can you look up the measured pIC50 of CC(C)C[C@H](NCC1CCCCC1)C(=O)NCCCC(c1ccc(F)cc1)c1ccc(F)cc1 [Example 8, monohydrochloride] for me?
Output line: 6.34

Input line: Consider next the compound CC(C)C[C@H](NC(=O)OC(C)(C)C)C(=O)NCCCC(c1ccc(F)cc1)c1ccc(F)cc1 in the same way.
Output line: 5.89

Input line: Consider next the compound CC(C)=CCN[C@@H](CC(C)C)C(=O)NCCCC(c1ccc(F)cc1)c1ccc(F)cc1 [Example 9, monohydrochloride] in the same way.
Output line: 6.55

Input line: Consider next the compound CN[C@@H](CC(C)C)C(=O)NCCCC(c1ccc(F)cc1)c1ccc(F)cc1 [Example 12, monohydrochloride] in the same way.
Output line: 5.84

Input line: Consider next the compound CC(C)=CCN(C)[C@@H](CC(C)C)C(=O)NCCCC(c1ccc(F)cc1)c1ccc(F)cc1 [Example 13, monohydrochloride] in the same way.
Output line: 6.28

Input line: Consider next the compound CC(C)C[C@H](N)C(=O)NCCCC(c1ccc(F)cc1)c1ccc(F)cc1 [Example 7, monohydrochloride] in the same way.
Output line: 5.62

###

target.desc: L-type calcium channels in A10 cells (Rattus norvegicus, UniProt P22002)
Construct: which endogenously expresses L-type calcium channels
Sequence (P22002 whole entry): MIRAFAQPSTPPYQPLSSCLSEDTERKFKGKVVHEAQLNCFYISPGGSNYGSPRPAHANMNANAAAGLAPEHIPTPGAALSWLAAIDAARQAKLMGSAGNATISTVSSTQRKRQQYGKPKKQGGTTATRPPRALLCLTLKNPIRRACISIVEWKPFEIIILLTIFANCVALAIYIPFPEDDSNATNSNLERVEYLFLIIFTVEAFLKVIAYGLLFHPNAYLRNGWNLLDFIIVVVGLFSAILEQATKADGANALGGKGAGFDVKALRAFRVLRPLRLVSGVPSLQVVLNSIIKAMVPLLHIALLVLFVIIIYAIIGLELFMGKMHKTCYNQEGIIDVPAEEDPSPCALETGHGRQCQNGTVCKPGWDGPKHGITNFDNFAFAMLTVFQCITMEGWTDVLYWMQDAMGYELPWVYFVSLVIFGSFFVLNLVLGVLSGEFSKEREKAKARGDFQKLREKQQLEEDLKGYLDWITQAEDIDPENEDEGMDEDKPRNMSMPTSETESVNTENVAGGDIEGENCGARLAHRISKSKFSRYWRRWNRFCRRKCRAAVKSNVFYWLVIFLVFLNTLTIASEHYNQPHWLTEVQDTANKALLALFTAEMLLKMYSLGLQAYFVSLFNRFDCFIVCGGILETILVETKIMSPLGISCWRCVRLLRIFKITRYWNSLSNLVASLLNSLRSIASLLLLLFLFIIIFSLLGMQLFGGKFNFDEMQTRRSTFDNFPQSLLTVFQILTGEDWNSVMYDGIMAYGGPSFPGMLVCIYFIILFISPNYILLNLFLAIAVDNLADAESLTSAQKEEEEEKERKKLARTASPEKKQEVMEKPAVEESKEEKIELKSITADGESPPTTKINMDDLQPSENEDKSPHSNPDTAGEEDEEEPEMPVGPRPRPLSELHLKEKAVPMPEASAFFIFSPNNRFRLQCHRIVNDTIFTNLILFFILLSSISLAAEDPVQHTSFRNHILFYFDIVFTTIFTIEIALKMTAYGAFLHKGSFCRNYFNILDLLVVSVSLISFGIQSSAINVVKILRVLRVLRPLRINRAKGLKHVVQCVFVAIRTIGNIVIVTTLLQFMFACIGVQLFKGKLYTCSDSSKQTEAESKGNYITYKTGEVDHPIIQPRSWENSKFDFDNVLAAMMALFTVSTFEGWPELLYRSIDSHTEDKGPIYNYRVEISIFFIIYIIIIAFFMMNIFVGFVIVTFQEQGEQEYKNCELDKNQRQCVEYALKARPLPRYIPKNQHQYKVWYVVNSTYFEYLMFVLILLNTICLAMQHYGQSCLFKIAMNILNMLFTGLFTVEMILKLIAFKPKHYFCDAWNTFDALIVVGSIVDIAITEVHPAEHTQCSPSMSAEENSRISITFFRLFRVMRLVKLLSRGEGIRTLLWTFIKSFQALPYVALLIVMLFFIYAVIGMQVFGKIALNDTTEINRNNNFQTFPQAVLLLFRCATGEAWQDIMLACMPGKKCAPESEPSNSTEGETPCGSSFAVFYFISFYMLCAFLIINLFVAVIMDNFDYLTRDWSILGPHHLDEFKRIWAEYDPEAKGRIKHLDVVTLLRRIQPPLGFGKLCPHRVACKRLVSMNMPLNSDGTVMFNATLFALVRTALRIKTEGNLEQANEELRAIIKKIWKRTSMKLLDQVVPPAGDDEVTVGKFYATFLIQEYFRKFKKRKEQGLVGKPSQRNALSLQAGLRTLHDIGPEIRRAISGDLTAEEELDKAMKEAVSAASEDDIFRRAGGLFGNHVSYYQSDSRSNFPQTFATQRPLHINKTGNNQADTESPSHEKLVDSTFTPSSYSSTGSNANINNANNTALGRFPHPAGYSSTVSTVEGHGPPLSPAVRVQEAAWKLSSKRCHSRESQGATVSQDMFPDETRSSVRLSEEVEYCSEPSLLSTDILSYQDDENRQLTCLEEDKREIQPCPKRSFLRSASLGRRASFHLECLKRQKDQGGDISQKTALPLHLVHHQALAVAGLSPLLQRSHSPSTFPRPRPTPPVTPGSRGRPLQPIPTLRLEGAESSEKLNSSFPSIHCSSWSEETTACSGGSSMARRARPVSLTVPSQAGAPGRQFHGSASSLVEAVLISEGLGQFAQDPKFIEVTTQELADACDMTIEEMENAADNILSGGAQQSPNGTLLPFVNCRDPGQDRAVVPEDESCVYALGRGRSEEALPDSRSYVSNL
Sequence (P54290 25-944 partner limits assumed): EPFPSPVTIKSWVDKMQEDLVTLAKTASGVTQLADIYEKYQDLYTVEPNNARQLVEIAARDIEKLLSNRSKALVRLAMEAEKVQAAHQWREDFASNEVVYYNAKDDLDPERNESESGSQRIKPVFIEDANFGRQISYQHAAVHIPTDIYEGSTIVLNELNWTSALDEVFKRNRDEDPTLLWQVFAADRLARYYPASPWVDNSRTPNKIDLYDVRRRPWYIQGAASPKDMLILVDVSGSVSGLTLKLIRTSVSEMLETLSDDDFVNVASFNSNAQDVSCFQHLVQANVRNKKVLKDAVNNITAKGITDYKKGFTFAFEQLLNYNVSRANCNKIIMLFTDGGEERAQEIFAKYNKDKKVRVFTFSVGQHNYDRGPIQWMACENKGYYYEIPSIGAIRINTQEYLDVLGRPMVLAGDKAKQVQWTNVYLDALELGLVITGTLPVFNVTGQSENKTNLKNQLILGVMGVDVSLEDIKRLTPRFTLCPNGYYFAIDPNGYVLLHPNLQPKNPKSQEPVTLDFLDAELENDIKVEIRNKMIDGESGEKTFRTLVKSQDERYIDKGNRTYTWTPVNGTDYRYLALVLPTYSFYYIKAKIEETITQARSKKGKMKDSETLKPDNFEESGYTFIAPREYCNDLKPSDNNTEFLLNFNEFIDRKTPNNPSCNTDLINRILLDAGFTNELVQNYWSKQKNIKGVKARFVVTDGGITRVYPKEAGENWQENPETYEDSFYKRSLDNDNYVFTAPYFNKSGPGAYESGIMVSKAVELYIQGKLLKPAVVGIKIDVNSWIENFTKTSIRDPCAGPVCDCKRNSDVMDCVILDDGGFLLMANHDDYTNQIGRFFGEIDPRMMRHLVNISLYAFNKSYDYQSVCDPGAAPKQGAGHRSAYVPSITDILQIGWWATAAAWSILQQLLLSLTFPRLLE
Sequence (P54290 945-1091 partner limits assumed): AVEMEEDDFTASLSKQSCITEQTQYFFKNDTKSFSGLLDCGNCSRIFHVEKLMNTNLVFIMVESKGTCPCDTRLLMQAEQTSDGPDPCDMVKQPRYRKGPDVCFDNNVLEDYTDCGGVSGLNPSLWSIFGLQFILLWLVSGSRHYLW
Sequence (P54287 whole entry partner): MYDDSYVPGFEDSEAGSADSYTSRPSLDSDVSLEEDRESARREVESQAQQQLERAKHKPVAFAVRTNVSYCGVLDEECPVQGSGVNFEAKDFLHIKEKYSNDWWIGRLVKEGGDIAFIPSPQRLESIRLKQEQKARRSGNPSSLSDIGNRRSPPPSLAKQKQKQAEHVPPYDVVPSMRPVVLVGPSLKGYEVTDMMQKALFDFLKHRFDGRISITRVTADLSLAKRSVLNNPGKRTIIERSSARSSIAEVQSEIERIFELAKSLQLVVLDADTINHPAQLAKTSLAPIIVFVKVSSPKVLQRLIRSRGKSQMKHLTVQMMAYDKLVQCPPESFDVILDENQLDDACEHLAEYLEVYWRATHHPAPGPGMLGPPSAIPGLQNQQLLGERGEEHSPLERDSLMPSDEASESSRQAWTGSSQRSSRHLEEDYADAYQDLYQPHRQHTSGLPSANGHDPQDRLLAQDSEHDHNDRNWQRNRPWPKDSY
protocol: L-type Ca2+ channel blocking potency in A10 cells (FLIPR)
conditions: read-out: FLPA10 IC50
pIC50: −log10 of the molar value.
recorded.endpoint: pIC50

Input line: Can you look up the measured pIC50 of CC(C)C[C@@H](C(=O)N1CCN(C(c2ccc(F)cc2)c2ccc(F)cc2)CC1)N(Cc1ccc(C(C)(C)C)cc1)Cc1ccc(C(C)(C)C)cc1 for me?
Output line: < 5.52

Input line: Consider next the compound CC(C)C[C@@H](C(=O)N1CCN(C(c2ccc(F)cc2)c2ccc(F)cc2)CC1)N(Cc1ccc(OC(C)(C)C)cc1)Cc1ccc(OC(C)(C)C)cc1 in the same way.
Output line: < 5.52

Input line: Consider next the compound CC(C)C[C@H](NCc1ccc(C(C)(C)C)cc1)C(=O)N1CCN(C(c2ccc(F)cc2)c2ccc(F)cc2)CC1 in the same way.
Output line: < 5.52

These entries and their values trace back to patent US6458781B1.
